Provide the recorded inhibition for the entries that follow.
Protocol Notes: M. tuberculosis growth inhibition, HTS (AID 449762);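 also: bacterial growth assessed after seven days of incubation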
Condition Info: M. tuberculosis H37Rv growth inhibition, 7H9 media; at 25 µM; active compounds read high
About 1,900 (0.58%) of roughly 330,000 compounds were called active. Another 4% or so got no clear call; they are omitted. The list is a sample of the results. Results with a measured potency or affinity are listed apart.
Answers are plain numbers, in %.

CCN1CCN(C(=O)/C=C/c2ccc(C)o2)CC1 = -7.62

State the recorded inhibition for every item in the following list.
1. Oc1ccc(C[C@@H]2CNCCN2CC2CCCCC2)cc1
2. O=C(CNS(=O)(=O)c1ccccc1)N1CCN(Cc2ccccc2)CC1
3. COc1ccc(CCN2C(=O)CSC2c2ccc(F)cc2)cc1 (stereo not given)
4. CCN1C(N(C)CCc2cccs2)=N[C@@H](c2ccccc2)C(C(=O)OC)=C1C
5. CCOc1ccc(Nc2cc(C)nc(N3CCOCC3)n2)cc1

1. -3.4
2. -2.28
3. -7.99
4. -2.75
5. -6.87

###

Provide the recorded inhibition for the entries that follow.
Protocol Notes: M. tuberculosis growth inhibition, HTS (AID 449762);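 also: bacterial growth assessed after seven days of incubation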
Condition Info: M. tuberculosis H37Rv growth inhibition, 7H9 media; at 25 µM; active compounds read high
The campaign covered roughly 330,000 compounds. About 1,900 (0.58%) were called active. Roughly 4% stayed inconclusive and do not appear here. Not all results are given here. Results with a measured potency or affinity are listed apart.
Answers are plain numbers, in %.

CCn1ncc(/C=N/O)c1C = -7.24
Cc1ccc(C(=O)N2CCN(c3ccc([N+](=O)[O-])c(NCc4cccnc4)c3)CC2)cc1 = 0.99
C=C(c1ccccc1O)n1ccnc1 = 0.25
Cc1ccc(/C=C/C(=O)c2ccc(C)cc2)cc1 = -12.1
Brc1ccc(-c2csc(-c3c[nH]c4ccccc34)n2)cc1 = 20.1

State the recorded inhibition for every item in the following list.
1. CSCCC(NC(=O)CCC(=O)OC1CC[C@H]2[C@@H]3CC[C@H]4CC(=O)CC[C@]4(C)[C@H]3CC[C@]12C)C(=O)O (stereo not given in full)
2. COc1cccc(C(=O)Nc2cccc(NC(=O)c3cccs3)c2)c1
3. CC(Nc1cc(C)cc(C)c1)=[N+](C)CCNS(=O)(=O)c1ccc(Cl)cc1
4. OC(CN1CCN(c2ccccc2Cl)CC1)c1ccccc1 (stereo not given)
5. CCN1CCN(Cc2cc(Br)ccc2O)CC1
6. COC(=O)c1ccc(NC(=O)CSCc2ccccc2C)cc1

[2.77, 0.1, -13.9, 2.61, -0.17, 21.9]

###

Protocol Notes: M. tuberculosis growth inhibition, HTS (AID 449762);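 also: bacterial growth assessed after seven days of incubation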
Condition Info: M. tuberculosis H37Rv growth inhibition, 7H9 media; at 25 µM; active compounds read high
Among all 330,000 compounds or so, about 1,900 (0.58%) were called active. Roughly 4% stayed inconclusive and do not appear here. Only a sample is shown. Entries with a potency or affinity are not part of this list.
Result Type: inhibition (%)
One number for each entry, in %.

Clc1ccc(CNc2ccc(CNc3ncn[nH]3)cc2)cc1 = 2.69
CCOc1cc(NCc2ccccc2)c2ncn(C(C)C)c2c1 = 67.6

State the recorded inhibition for every item in the following list.
1. O=C(NCCc1ccccc1)c1c(O)c2cccc3c2n(c1=O)CC3
2. O=C(N/N=C/c1ccco1)c1cc(-c2cccc(Br)c2)nc2ccccc12

1. -1.91
2. 5.09

###

Protocol Notes: M. tuberculosis growth inhibition, HTS (AID 449762);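 also: bacterial growth assessed after seven days of incubation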
Condition Info: M. tuberculosis H37Rv growth inhibition, 7H9 media; at 25 µM; active compounds read high
The whole screen tested about 330,000 compounds, of which about 1,900 (0.58%) were called active. About 4% were inconclusive and are not listed. Only a sample is shown. Measured potencies and affinities stand elsewhere.
Result Type: inhibition (%)
One number for each entry, in %.

Example cases with answers are listed next.
Cc1ccc(N=Nc2ccc(O)c3ncccc23)cc1 = 63.9
CC(C)(C)c1ccc(OCCNCc2ccccc2)cc1 = 14.6
COc1ccc(N=Nc2ccc(O)c3ncccc23)cc1 = 64.2
COc1ccc(/C=C2/C(=O)N(c3ccccc3)N=C2C)cc1OC = 8.2
O=C(Cc1cn2ccsc2n1)Nc1nc2c(s1)CN(Cc1ccccc1)CC2 = -6

State the recorded inhibition for every item in the following list.
1. CCOCCCNC(=O)C(NC(=O)Cc1cccs1)c1ccc(OC)cc1 (stereo not drawn)
2. O=C(C1CCCN1S(=O)(=O)c1cccc2nsnc12)N1CCCCCC1 (stereo not drawn)

1. 3.59
2. 2.56

State the recorded inhibition for every item in the following list.
1. O=C1CCCN1CCC(=O)N1CCCC(Nc2ccc(F)cc2)C1 (stereo not drawn)
2. O=C(CSc1nn(-c2ccc(Cl)cc2)c(=S)s1)NCC1CCCO1 (stereo not drawn)
3. O=C(CSc1nc(-c2ccc(F)cc2)cs1)NCC1CCCO1 (stereo not drawn)
4. Cc1nc2ccccc2c2oc(C(=O)N3CCN(c4ccc([N+](=O)[O-])cc4)CC3)cc12

[-9.8, 69.3, -0.07, 26.2]

###

Provide the recorded inhibition for the entries that follow.
Protocol Notes: M. tuberculosis growth inhibition, HTS (AID 449762);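 also: bacterial growth assessed after seven days of incubation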
Condition Info: M. tuberculosis H37Rv growth inhibition, 7H9 media; at 25 µM; active compounds read high
About 1,900 (0.58%) of roughly 330,000 compounds were called active. Inconclusive results (about 4%) are left out. Only a sample is shown. Measured potencies and affinities stand elsewhere.
One number for each entry, in %.

Example cases with answers are listed next.
COC(=O)CSc1nsc(SCC(=O)OC)c1C#N = -0.76
Cc1ccc(N=Cc2ccc[nH]2)c(O)c1 = 2.98
CC(=O)c1sc(NC(=O)c2c(F)cccc2F)nc1-c1ccccc1 = 3.31

Next compound, inhibition to be filled in.
Fill blank: measured inhibition of the compound COc1ccc(-c2cc3nc(C)n(N)c(=O)c3s2)cc1 is ____.
-2.06

###

Protocol Notes: M. tuberculosis growth inhibition, HTS (AID 449762);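 also: bacterial growth assessed after seven days of incubation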
Condition Info: M. tuberculosis H37Rv growth inhibition, 7H9 media; at 25 µM; active compounds read high
Among all 330,000 compounds or so, about 1,900 (0.58%) were called active. Inconclusive results (about 4%) are left out. Not all results are given here. Entries with a potency or affinity are not part of this list.
Provide the recorded inhibition for the entries that follow.
Give bare numbers, in %.

Example cases with answers are listed next.
OCCNc1nc(NCc2ccccc2)c2ccccc2n1 = 5.73
CCOc1ccc(C(C)NC(=O)Cc2ccccc2)cc1OCC (stereo not drawn) = -8.29
Cc1ccc(-c2nc3ccccc3c(=O)o2)cc1 = 12.5
O=C(O)C1CC(=O)N(c2ccc(OCc3ccccc3Cl)cc2)C1 (stereo not drawn) = 35.8
N#Cc1ccccc1/C=N/Nc1nc(-c2ccccc2)c2cc(Cl)ccc2n1 = -2.26
NC(=O)C1CC(=O)N(c2ccc(OCc3ccccc3Cl)cc2)C1 (stereo not drawn) = 7.94

State the recorded inhibition for every item in the following list.
1. N#Cc1ccccc1/C=N/Nc1nc(-c2ccccc2)c2cc(Br)ccc2n1
2. COc1ccc(NC(=O)CSc2nnc3ccc(-c4ccccn4)nn23)c(OC)c1

1. 6.43
2. -1.07

State the recorded inhibition for every item in the following list.
1. CC(C)Oc1ccc(N2CC(C(=O)Nc3ccccn3)CC2=O)cc1 (stereo not drawn)
2. CCOC(=O)N1CCN(S(=O)(=O)c2ccc(C(=O)N(CCN(C)C)c3nc4c(C)cccc4s3)cc2)CC1
3. CC(C)NS(=O)(=O)c1ccc(OCC(=O)NCC2CCCO2)c(Cl)c1 (stereo not drawn)

1: 10.3; 2: -14.4; 3: -3.59

State the recorded inhibition for every item in the following list.
1. Fc1cccc2sc(Nc3nc4cc5c(cc4s3)OCCO5)nc12
2. CC1CCCC(NC(=O)CSC2CCCCC2)C1C (stereo not drawn)

45.4
3.14

###

Protocol Notes: M. tuberculosis growth inhibition, HTS (AID 449762);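 also: bacterial growth assessed after seven days of incubation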
Condition Info: M. tuberculosis H37Rv growth inhibition, 7H9 media; at 25 µM; active compounds read high
Screen size: about 330,000 compounds; about 1,900 (0.58%) were called active. About 4% were inconclusive and are not listed. Not all results are given here. Measured potencies and affinities stand elsewhere.
Result Type: inhibition (%)
One number for each entry, in %.

CCCNC(=O)OCc1cccnc1Sc1ccc(C)cc1 = 3.87

State the recorded inhibition for every item in the following list.
1. COc1cc(C(=O)OCC(=O)Nc2ccccc2C(=O)NC2CC2)c([N+](=O)[O-])cc1OC
2. CC(NC(=O)/C(=C\c1cccc([N+](=O)[O-])c1)NC(=O)c1ccco1)C(=O)O (stereo not drawn)
3. CC(=O)NNC(=O)CCn1nnc(-c2ccc(Cl)cc2)n1
4. OCCOCCn1c(C2CCCN2c2nc(-c3ccc(F)cc3)cs2)nc2cc(C(F)(F)F)ccc21 (stereo not drawn)

1. -0.465
2. 2.24
3. 0.1
4. 2.16
